- TEST DETAILS: DNDI: Cytotoxicity against human MRC-5 lung fibroblast cells.
- MEASUREMENT SETUP: IC50
pIC50: −log10 of the molar value.
READOUT TYPE: pIC50

Input Cc1cccc(C)c1C(OCC1CN(C(C)C)C(C)(C)O1)c1c(C)cccc1C (stereo unspecified) . Output pIC50: < 4.68

Input Oc1c(C(Nc2ccccn2)c2ccc(C(F)(F)F)cc2)ccc2cccnc12 (stereo unspecified) . Output pIC50: < 4.38

Input NC1c2ccccc2CC1Cc1ccc(Cl)cc1Cl (stereo unspecified) . Output pIC50: < 4.68

Input CCOC(=O)c1nc[nH]c1/N=N/c1ccc(O)c2ccccc12 . Output pIC50: 5.42

Input Cc1cccc2c1NC(=O)C2(c1ccc(O)cc1)c1ccc(O)cc1 . Output pIC50: < 4.68

Input CC(C)NCC(O)CC(O)(c1ccccc1)c1ccc(C(C)(C)C)cc1 (stereo unspecified) . Output pIC50: < 4.68

Input C=CCNc1nc(N)c(/C(N)=N\C#N)s1 . Output pIC50: < 4.38

* * *

- TEST DETAILS: DNDI: Cytotoxicity against human MRC-5 lung fibroblast cells.
- MEASUREMENT SETUP: IC50
pIC50: −log10 of the molar value.
Reported pIC50 values follow for various molecules

Consider the worked cases shown below.
N=c1n(CCO)c2ccccc2n1CCOc1ccc(Cl)cc1Cl ... 5.05
CS(=O)(=O)c1cccc(C(=O)Nc2nc(-c3ccccn3)cs2)c1 ... < 4.98
CC[n+]1c(/C=C2\Sc3cc(NC(C)=O)ccc3N2C)ccc2ccccc21 ... < 4.38
O=C1CC(n2nnn(-c3ccc(OC(F)(F)F)cc3)c2=S)C2COC1O2 (stereo unspecified) ... < 4.38
CC1(C)CC(=S)C=C(N2CCCCC2)C1 ... < 4.38

Input CCS(=O)(=O)N1CCCc2ccc(NS(=O)(=O)c3cccs3)cc21 . Output pIC50: < 4.38

* * *

- TEST DETAILS: DNDI: Cytotoxicity against human MRC-5 lung fibroblast cells.
- MEASUREMENT SETUP: IC50
pIC50: −log10 of the molar value.
READOUT TYPE: pIC50

Consider the worked cases shown below.
CC(C)(C)n1ncc(SC/C(=N\O)c2ccccc2)c(Cl)c1=O ... < 4.38
Cc1ccc2c(c1)C(=O)C(CN1CCOCC1)CO2 (stereo unspecified) ... < 4.68
CCCCc1ccc(NC(=S)NC2CC(C)(C)NC(C)(C)C2)cc1 ... < 4.68
Cn1c(Cc2ccccc2)nn(C2CC(=O)C3OCC2O3)c1=S (stereo unspecified) ... < 4.38
Cc1ccc(O)c(/N=N/c2nnc[nH]2)c1 ... < 4.98

Next molecule, please.
Input C=CCn1c(=N)n(CC(O)COc2ccccc2C)c2ccccc21 (stereo unspecified) . Output pIC50: < 4.68

* * *

- TEST DETAILS: DNDI: Cytotoxicity against human MRC-5 lung fibroblast cells.
- MEASUREMENT SETUP: IC50
pIC50: −log10 of the molar value.
READOUT TYPE: pIC50

Consider the worked cases shown below.
CN1/C(=C/C=C/c2oc3ccccc3[n+]2C)Oc2ccccc21 ... < 5.68
O=C1/C(=C/c2ccncc2)CCC/C1=C\c1ccncc1 ... 5.71
COc1cccc2c(N)c3c(cnn3C)nc12 ... < 5.38
CCN(CC)c1ccc(/C=N/NC(=O)c2nn(C)cc2Cl)c(O)c1 ... < 4.38
OCCNC1CCCc2c1[nH]c1ccc(Br)cc21 (centres undefined) ... < 4.68
CCOc1cc(CNCCO)cc(Cl)c1OCc1ccccc1F ... < 4.68
Cc1ccc2[nH]c3c(c2c1)CCC/C3=N\N=C(N)N ... < 4.68
CC1CCN(C(c2cc(C(C)(C)C)c(O)c(C(C)(C)C)c2)c2ccccn2)CC1 (centres undefined) ... < 4.38
CCCCOc1ccccc1/C=N/NC(=N)N ... < 4.38
Cc1ccc(-c2cn3c([n+]2-c2ccc(C)cc2)CCCCC3)cc1 ... < 4.68

Input Fc1ccc(C(CCCN2CCN3CCCCC3C2)c2ccc(F)cc2)cc1 (centres undefined) . Output pIC50: < 4.38

Input O=C1c2cccc3cccc(c23)C(=O)N1CCNCCO . Output pIC50: < 5.38

Input COc1cc(OC)c2nc(C)c3c(c2c1)CNC3 . Output pIC50: 5.15

Input O=C1/C(=C\c2cccnc2)CCc2ccccc21 . Output pIC50: < 4.68
